Test system: Hirse Sorte K-9693 Kormovoe I
assay.notes: field test of gametocidal activity (sterilisation of anthers)
Type: in vivo
assay.context: V. Periode, 1%ige wäßrige Emulsion, 8 kg/ha, control = 100
Excerpt: Die gametozide Aktivität der erfindungsgemäßen Sterilisationsmittel war in Feldversuch in verschiedenen bodenklimatischen Zonen mit Teilstücken von 10 m^2 Größe in drei-- bis viermaliger Wiederholung nachgewiesen. Jedes Sterilisationsmittel wurde mindestens 5 Jahre lang geprüft. Die Entwicklung der Perioden der Organogenese wird zytologisch überwacht. Die Behandlung von Pflanzen mit dem Sterilisationsmittel erfolgt am Anfang der fünften Periode der Organogenese nach Kupermann. […]
The molecules listed here are annotated with their Prozentsatz des Ansetzens der Körner bei freier Bestäubung.

Solved cases (5 shown):
molecule: CCCCOC(=O)c1ccccc1C(=O)OCCCC [Beispiel 99, Phthalsäuredibutylester]
tested.target: Hirse Sorte K-9693 Kormovoe I
assay.result: 87,9%
//
molecule: COC(=O)C1CCC=CC1C (stereo not drawn) [Beispiel 101]
tested.target: Hirse Sorte K-9693 Kormovoe I
assay.result: 87,1%
//
molecule: CCCCCCOC(=O)c1ccccc1C(=O)OCCCCCC [Beispiel 102, Phthalsäuredihexylester]
tested.target: Hirse Sorte K-9693 Kormovoe I
assay.result: 93,1%
//
molecule: CC(C)COC(=O)c1ccccc1C(=O)OCC(C)C [Beispiel 100, Phthalsäurediisobutylester]
tested.target: Hirse Sorte K-9693 Kormovoe I
assay.result: 75,3%
//
molecule: CC1C=CCCC1C(=O)O.N (stereo not drawn) [Beispiel 97]
tested.target: Hirse Sorte K-9693 Kormovoe I
assay.result: 82,9%

Lab note: next molecule to report on.
Provide one value: measured Prozentsatz des Ansetzens der Körner bei freier Bestäubung of CCCOC(=O)c1ccccc1C(=O)OCCC [Beispiel 98, Phthalsäuredipropylester]
89,1%

* * *

The compounds listed here are annotated with their Kornzahl der Ähre bei freier Bestäubung.
Tested on: Diploider Roggen Chulpan
assay.notes: field test of gametocidal activity (sterilisation of anthers)
Type: in vivo
assay.context: Chulpan; V. Periode; 1%ige wäßrige Emulsion; 8 kg/ha

Solved cases (4 shown):
compound: CC(C)COC(=O)c1ccccc1C(=O)OCC(C)C [Beispiel 64, Phthalsäurediisobutylester]
tested.target: Diploider Roggen Chulpan
experimental.endpoint: Kornzahl der Ähre bei freier Bestäubung
assay.result: 52,2
--
compound: CCCCOC(=O)c1ccccc1C(=O)OCCCC [Beispiel 67, Phthalsäuredibutylester]
tested.target: Diploider Roggen Chulpan
experimental.endpoint: Kornzahl der Ähre bei freier Bestäubung
assay.result: 50,5
--
compound: O=C(O)c1ccccc1O [Beispiel 62, Kaliumsalz der Salizylsäure]
tested.target: Diploider Roggen Chulpan
experimental.endpoint: Kornzahl der Ähre bei freier Bestäubung
assay.result: 50,4
--
compound: CC1C=CCCC1C(=O)O (centres unmarked) [Beispiel 60]
tested.target: Diploider Roggen Chulpan
experimental.endpoint: Kornzahl der Ähre bei freier Bestäubung
assay.result: 55,2

Lab note: next compound to report on.
Provide one value: measured Kornzahl der Ähre bei freier Bestäubung of C=CCOC(=O)c1ccccc1C(=O)OCC=C [Beispiel 63, Phthalsäurediallylester]
53,7

* * *

Test system: Winterweizen Mironovskaya 808
assay.notes: field test of gametocidal activity (sterilisation of anthers)
Assay type: in vivo
assay.context: treated in V. Periode der Organogenese, 2%ige wäßrige Emulsion, 20 kg/ha, control = 100
The compounds listed here are annotated with their Prozentsatz des Ansetzens der Körner bei freier Bestäubung.

Solved cases (2 shown):
compound: CCCCOC(=O)c1ccccc1C(=O)OCCCC [Beispiel 5, Phthalsäuredibutylester]
assay.result: 78,5%
--
compound: CC(C)COC(=O)c1ccccc1C(=O)OCC(C)C [Beispiel 7, Phthalsäurediisobutylester]
assay.result: 93,3%

Lab note: next compound to report on.
Provide one value: measured Prozentsatz des Ansetzens der Körner bei freier Bestäubung of CCOC(=O)c1ccccc1C(=O)OCC [Beispiel 8, Phthalsäurediäthylester]
98,5%

* * *

Test system: tetraploidem Roggen Sorte Ukrainskaya
assay.notes: field test of gametocidal activity (sterilisation of anthers)
Assay type: in vivo
assay.context: V. Periode, wäßrige Emulsion (concentration not given), 6 kg/ha
The compounds listed here are annotated with their Kornzahl der Ähre bei freier Bestäubung.

Solved cases (3 shown):
compound: CC1C=CCCC1C(=O)O (stereo not shown) [Beispiel 56]
Kornzahl der Ähre bei freier Bestäubung: 32,1
--
compound: O=C(O)c1ccccc1 [Beispiel 58, Kaliumsalz der Benzoesäure]
Kornzahl der Ähre bei freier Bestäubung: 35,8
--
compound: CCOC(=O)c1ccccc1C(=O)OCC [Beispiel 57, Phthalsäurediäthylester]
Kornzahl der Ähre bei freier Bestäubung: 30,7

Provide one value: measured Kornzahl der Ähre bei freier Bestäubung of CC(C)COC(=O)c1ccccc1C(=O)OCC(C)C [Beispiel 59, Phthalsäurediisobutylester]
34,7

* * *

Tested on: Winterweizen Mironovskaya 808
assay.notes: field test of gametocidal activity (sterilisation of anthers)
Assay type: in vivo
assay.context: treated in V. Periode der Organogenese, 2%ige wäßrige Emulsion, 20 kg/ha, control = 100
The compounds listed here are annotated with their Prozentsatz des Ansetzens der Körner bei freier Bestäubung.

Solved cases (2 shown):
compound: CC1C=CCCC1C(=O)O.N (centres unmarked)
assay.result: 97,0%
--
compound: COC(=O)C1CCC=CC1C (centres unmarked)
assay.result: 74,5%

Provide one value: measured Prozentsatz des Ansetzens der Körner bei freier Bestäubung of CC1C=CCCC1C(=O)[O-].[K+] (centres unmarked)
95,5%

Provide one value: measured Prozentsatz des Ansetzens der Körner bei freier Bestäubung of CCCCCCOC(=O)c1ccccc1C(=O)OCCCCCC
94,5%

Provide one value: measured Prozentsatz des Ansetzens der Körner bei freier Bestäubung of CCCOC(=O)c1ccccc1C(=O)OCCC
96,5%

* * *

The molecules listed here are annotated with their Prozentsatz des Ansetzens der Körner bei freier Bestäubung.
Test system: Winterweizens Sorte Kharkovskaya 81
assay.notes: field test of gametocidal activity (sterilisation of anthers)
Assay type: in vivo, Winterweizen
assay.context: V. und VI. Periode, 2%ige wäßrige Emulsion, 12 kg/ha, control = 100

Solved cases (3 shown):
molecule: CC1C=CCCC1C(=O)O.N (centres unmarked) [Beispiel 20]
assay.result: 93,5%
--
molecule: CCCCOC(=O)c1ccccc1C(=O)OCCCC [Beispiel 21, Phthalsäuredibutylester]
assay.result: 84,4%
--
molecule: CCCCCCOC(=O)c1ccccc1C(=O)OCCCCCC [Beispiel 19, Phthalsäuredihexylester]
assay.result: 90,8%

Provide one value: measured Prozentsatz des Ansetzens der Körner bei freier Bestäubung of CC1C=CCCC1C(=O)[O-].[Na+] (centres unmarked) [Beispiel 18]
96,2%

Provide one value: measured Prozentsatz des Ansetzens der Körner bei freier Bestäubung of C=CCOC(=O)c1ccccc1C(=O)OCC=C [Beispiel 22, Phthalsäurediallylester]
90,3%

* * *

Tested on: Winterweizens Sorte Polesskaya-70
assay.notes: field test of gametocidal activity (sterilisation of anthers)
Type: in vivo, Winterweizen
assay.context: V. Periode, 2%ige wäßrige Emulsion, 16 kg/ha, control = 100
The molecules listed here are annotated with their Prozentsatz des Ansetzens bei freier Bestäubung.

Solved cases (4 shown):
molecule: CC1C=CCCC1C(=O)[O-].[K+] (centres unmarked)
assay.result: 94,7%
--
molecule: CCCCCCOC(=O)c1ccccc1C(=O)OCCCCCC
assay.result: 95,2%
--
molecule: CC1C=CCCC1C(=O)O.N (centres unmarked)
assay.result: 97,6%
--
molecule: CCOC(=O)c1ccccc1C(=O)OCC
assay.result: 97,4%

Lab note: next molecule to report on.
Provide one value: measured Prozentsatz des Ansetzens bei freier Bestäubung of C=CCOC(=O)c1ccccc1C(=O)OCC=C
94,1%

* * *

assay.notes: acute toxicity in animals
Set-up: species or system weiße Ratten
assay.context: rat, in vivo; weiße Ratten; einmalige Einführung in den Magen (route printed for Phthalsäuredibutylester); read-out: LD50
experimental.endpoint: LD50 (mg/kg)
Supply the numeric figure in mg/kg, leaving out any unit text.

Provide one value: measured LD50 of CCCCOC(=O)c1ccccc1C(=O)OCCCC [Phthalsäuredibutylester]
6670

* * *

Test system: Diploider Roggen Chulpan
assay.notes: field test of gametocidal activity (sterilisation of anthers)
Assay type: in vivo
assay.context: read-out: Prozentsätz des Ansetzens der Körner bei freier Bestäubung
experimental.endpoint: response vs control in vivo at 8000 g/ha (%)
Supply the numeric figure in %, leaving out any unit text.

substance.smiles: CC(C)COC(=O)c1ccccc1C(=O)OCC(C)C
unit.of.measure: %
response vs control in vivo at 8000 g/ha: 91.9
--
substance.smiles: C=CCOC(=O)c1ccccc1C(=O)OCC=C
unit.of.measure: %
response vs control in vivo at 8000 g/ha: 94.5
--
substance.smiles: CCCOC(=O)c1ccccc1C(=O)OCCC
unit.of.measure: %
response vs control in vivo at 8000 g/ha: 93.6
--
substance.smiles: CCCCCCOC(=O)c1ccccc1C(=O)OCCCCCC
unit.of.measure: %
response vs control in vivo at 8000 g/ha: 100
--
substance.smiles: O=C(O)c1ccccc1O
unit.of.measure: %
response vs control in vivo at 8000 g/ha: 88.7

Lab note: next compound to report on.
Provide one value: measured response vs control in vivo at 8000 g/ha of CCCCOC(=O)c1ccccc1C(=O)OCCCC
88.9

* * *

The molecules listed here are annotated with their Prozentsatz des Ansetzens der Körner bei freier Bestäubung.
Tested on: Sommerweizens Sorte Botanicheskaya 4
assay.notes: field test of gametocidal activity (sterilisation of anthers)
Format: in vivo, Sommerweizen
assay.context: V. Periode, 1%ige wäßrige Emulsion, 8 kg/ha, control = 100

Provide one value: measured Prozentsatz des Ansetzens der Körner bei freier Bestäubung of CCCCOC(=O)c1ccccc1C(=O)OCCCC
81,8%

Provide one value: measured Prozentsatz des Ansetzens der Körner bei freier Bestäubung of CCCOC(=O)c1ccccc1C(=O)OCCC
84,2%

Provide one value: measured Prozentsatz des Ansetzens der Körner bei freier Bestäubung of COC(=O)C1CCC=CC1C (stereo not shown)
91,4%

Provide one value: measured Prozentsatz des Ansetzens der Körner bei freier Bestäubung of CC1C=CCCC1C(=O)[O-].[Na+] (stereo not shown)
88,0%
